Tested on: rodent lifetime carcinogenesis bioassay, tumor incidence TD50
TEST_METHOD_NOTES: carcinogenic potency in animals, long-term in vivo studies, CPDB compilation (AID 1745844)
TEST_CONTEXT: mouse; strain Swiss; males; in feed; site: kidney; lesion: carcinoma; dosed 86 weeks; study length 104 weeks
VALUE_KIND: TD50

**Query** Form field: reported TD50 of CC(=O)[O-].CC(=O)[O-].[OH-].[OH-].[OH-].[OH-].[Pb+2].[Pb+2].[Pb+2]
**Result** 472 mg/kg/day

====

Tested on: rodent lifetime carcinogenesis bioassay, tumor incidence TD50
TEST_METHOD_NOTES: carcinogenic potency in animals, long-term in vivo studies, CPDB compilation (AID 1745844)
TEST_CONTEXT: rat; strain Charles River CD (Sprague-Dawley); females; in feed; site: thyroid gland; lesion: adenoma; dosed 97 weeks; study length 105 weeks
VALUE_KIND: TD50 (mg/kg/day)
Hi! Could you send only the number? It should be in mg/kg/day, unit omitted.

**Query** Item: CCOCCc1c(-c2ccccc2)nc(N)n2ncnc12 Test system: rodent lifetime carcinogenesis bioassay, tumor incidence TD50 Read-out: TD50 Value: ?
**Result** 9710

====

Test system: rodent lifetime carcinogenesis bioassay, tumor incidence TD50
TEST_METHOD_NOTES: carcinogenic potency in animals, long-term in vivo studies, CPDB compilation (AID 1745844)
TEST_CONTEXT: mouse; strain Swiss albino; males; in drinking water; site: lung; lesion: several types; types named in the paper; dosed 60 weeks; study length 60 weeks
VALUE_KIND: TD50

**Query** Form field: reported TD50 of CCN(N)C=O
**Result** 3.19 mg/kg/day

====

Tested on: rodent lifetime carcinogenesis bioassay, tumor incidence TD50
TEST_METHOD_NOTES: carcinogenic potency in animals, long-term in vivo studies, CPDB compilation (AID 1745844)
TEST_CONTEXT: mouse; strain B6C3F1; females; inhaled; site: lung; lesion: alveolar/bronchiolar adenoma; dosed 103 weeks; study length 104 weeks
Collected TD50 values appear next to each entry.

- c1ccc2ccccc2c1: 171 mg/kg/day

Then there is this molecule:
**Query** Item: CC1CO1 (configuration not stated) Test system: rodent lifetime carcinogenesis bioassay, tumor incidence TD50 Read-out: TD50 Value: ?
**Result** 588 mg/kg/day

====

Tested on: rodent lifetime carcinogenesis bioassay, tumor incidence TD50
TEST_METHOD_NOTES: carcinogenic potency in animals, long-term in vivo studies, CPDB compilation (AID 1745844)
TEST_CONTEXT: mouse; strain B6C3F1; males; in feed; site: any site (literature study); lesion: several types; types named in the paper; dosed 78 weeks; study length 96 weeks
VALUE_KIND: TD50 (mg/kg/day)
Hi! Could you send only the number? It should be in mg/kg/day, unit omitted.

**Query** Form field: reported TD50 of COc1ccc(N)cc1N
**Result** 354

====

Tested on: rodent lifetime carcinogenesis bioassay, tumor incidence TD50
TEST_METHOD_NOTES: carcinogenic potency in animals, long-term in vivo studies, CPDB compilation (AID 1745844)
TEST_CONTEXT: rat; strain F344/DuCrj; females; in feed; site: small intestine; lesion: adenoma; dosed 104 weeks; study length 104 weeks
VALUE_KIND: TD50

**Query** Form field: reported TD50 of Nc1ccc2nc3ccccn3c2n1
**Result** 171 mg/kg/day

====

Tested on: rodent lifetime carcinogenesis bioassay, tumor incidence TD50
TEST_METHOD_NOTES: carcinogenic potency in animals, long-term in vivo studies, CPDB compilation (AID 1745844)
TEST_CONTEXT: rat; strain Cb/Sc; males; in drinking water; site: liver; lesion: one or several types; types not named; dosed 48 weeks; study length 84 weeks
VALUE_KIND: TD50

**Query** Form field: reported TD50 of NNC(=O)c1ccncc1
**Result** 199 mg/kg/day

====

Tested on: rodent lifetime carcinogenesis bioassay, tumor incidence TD50
TEST_METHOD_NOTES: carcinogenic potency in animals, long-term in vivo studies, CPDB compilation (AID 1745844)
TEST_CONTEXT: mouse; strain Swiss albino; males; by gavage; site: liver; lesion: hepatoma; dosed 53 weeks; study length 119 weeks
VALUE_KIND: TD50 (mg/kg/day)
Hi! Could you send only the number? It should be in mg/kg/day, unit omitted.

**Query** Form field: reported TD50 of CC(C)C/C=N/N(C)C=O
**Result** 8

====

System: rodent lifetime carcinogenesis bioassay, tumor incidence TD50
TEST_METHOD_NOTES: carcinogenic potency in animals, long-term in vivo studies, CPDB compilation (AID 1745844)
TEST_CONTEXT: mouse; strain B6C3F1; males; in feed; site: liver; lesion: hepatocellular carcinoma; dosed 94 weeks; study length 104 weeks
VALUE_KIND: TD50

**Query** Form field: reported TD50 of CCNC(=O)Nc1ncc([N+](=O)[O-])s1
**Result** 1900 mg/kg/day

====

Test system: rodent lifetime carcinogenesis bioassay, tumor incidence TD50
TEST_METHOD_NOTES: carcinogenic potency in animals, long-term in vivo studies, CPDB compilation (AID 1745844)
TEST_CONTEXT: rat; strain Fischer 344; females; inhaled; site: brain; lesion: glioma, NOS; dosed 104 weeks; study length 106 weeks
VALUE_KIND: TD50 (mg/kg/day)
Hi! Could you send only the number? It should be in mg/kg/day, unit omitted.

**Query** Item: CCBr Test system: rodent lifetime carcinogenesis bioassay, tumor incidence TD50 Read-out: TD50 Value: ?
**Result** 1020

====

Tested on: rodent lifetime carcinogenesis bioassay, tumor incidence TD50
TEST_METHOD_NOTES: carcinogenic potency in animals, long-term in vivo studies, CPDB compilation (AID 1745844)
TEST_CONTEXT: rat; strain IcoIbm:OFA (Sprague-Dawley derived); females; inhaled; site: nasal cavity, olfactory epithelium; lesion: carcinoma; dosed 102 weeks; study length 102 weeks
VALUE_KIND: TD50 (mg/kg/day)
Hi! Could you send only the number? It should be in mg/kg/day, unit omitted.

**Query** Form field: reported TD50 of COc1ccc(C(=O)Nc2c(Cl)cncc2Cl)cc1OC1CCCC1
**Result** 24.6

====

Tested on: rodent lifetime carcinogenesis bioassay, tumor incidence TD50
TEST_METHOD_NOTES: carcinogenic potency in animals, long-term in vivo studies, CPDB compilation (AID 1745844)
TEST_CONTEXT: mouse; strain B6C3F1; males; in feed; site: lung; lesion: alveolar/bronchiolar carcinoma; dosed 78 weeks; study length 78 weeks
Active and inactive are the calls of the source. How the calls were made is not given here.
VALUE_KIND: TD50

**Query** Form field: reported TD50 of CC(=O)Nc1ccc(CC(=O)O)cc1
**Result** 56100 mg/kg/day (inactive)

====

Test system: rodent lifetime carcinogenesis bioassay, tumor incidence TD50
TEST_METHOD_NOTES: carcinogenic potency in animals, long-term in vivo studies, CPDB compilation (AID 1745844)
TEST_CONTEXT: rat; strain Fischer 344; males; in feed; site: preputial gland; lesion: adenocarcinoma + adenoma + carcinoma; dosed 103 weeks; study length 105 weeks
VALUE_KIND: TD50 (mg/kg/day)
Hi! Could you send only the number? It should be in mg/kg/day, unit omitted.

**Query** Form field: reported TD50 of CCCOC(=O)c1cc(O)c(O)c(O)c1
**Result** 1040

====

System: rodent lifetime carcinogenesis bioassay, tumor incidence TD50
TEST_METHOD_NOTES: carcinogenic potency in animals, long-term in vivo studies, CPDB compilation (AID 1745844)
TEST_CONTEXT: mouse; strain Charles River CD1; females; in drinking water; site: any site (literature study); lesion: several types; types named in the paper; dosed 118 weeks; study length 118 weeks
Calls of active or inactive are those of the source. The rule behind the calls is not given here.
VALUE_KIND: TD50

**Query** Form field: reported TD50 of [Cl][Hg][Cl]
**Result** 2.42 mg/kg/day (inactive)

====

Test system: rodent lifetime carcinogenesis bioassay, tumor incidence TD50
TEST_METHOD_NOTES: carcinogenic potency in animals, long-term in vivo studies, CPDB compilation (AID 1745844)
TEST_CONTEXT: rat; strain Sprague-Dawley; males; in drinking water; site: pancreas; lesion: one or several types; types not named; dosed 130 weeks; study length 130 weeks
VALUE_KIND: TD50

**Query** Form field: reported TD50 of CCO
**Result** 13700 mg/kg/day

====

System: rodent lifetime carcinogenesis bioassay, tumor incidence TD50
TEST_METHOD_NOTES: carcinogenic potency in animals, long-term in vivo studies, CPDB compilation (AID 1745844)
TEST_CONTEXT: rat; strain Sprague-Dawley; females; inhaled; site: liver; lesion: angioma; dosed 71 weeks; study length 71 weeks
VALUE_KIND: TD50 (mg/kg/day)
Hi! Could you send only the number? It should be in mg/kg/day, unit omitted.

**Query** Form field: reported TD50 of C=CCl
**Result** 9130

====

Tested on: rodent lifetime carcinogenesis bioassay, tumor incidence TD50
TEST_METHOD_NOTES: carcinogenic potency in animals, long-term in vivo studies, CPDB compilation (AID 1745844)
TEST_CONTEXT: rat; strain Wistar-random; males; in feed; site: urinary bladder; lesion: several types; types named in the paper; dosed 121 weeks; study length 121 weeks
VALUE_KIND: TD50

**Query** Item: O=C(O)O Test system: rodent lifetime carcinogenesis bioassay, tumor incidence TD50 Read-out: TD50 Value: ?
**Result** 13200 mg/kg/day
